assay: cells; details: Homo sapiens, SU-DHL-1, 72 h
measured attribute: pIC50
API: returns pIC50 as number; meaning -log10 of concentration in mol/L.

CC(C)(C)c1cc(NC(=O)Nc2ccc(-n3c(N)c(C(N)=O)c4nc5ccccc5nc43)cc2)n(-c2ccc3ncccc3c2)n1	6.60

Now take the following compound into account.
Please give the measured pIC50 for this compound: Cc1ccc(-n2nc(C(C)(C)C)cc2NC(=O)Nc2ccc(-n3c(N)c(C(N)=O)c4nc5ccccc5nc43)cc2)cc1
6.22

====

molecular target: Ephrin type-B receptor 4 (Homo sapiens); experiment: Inhibition of full-length human EPHB4 expressed in MEF cells assessed as autophosphorylation by sandwitch-ELISA
Sequence (P54760 whole entry): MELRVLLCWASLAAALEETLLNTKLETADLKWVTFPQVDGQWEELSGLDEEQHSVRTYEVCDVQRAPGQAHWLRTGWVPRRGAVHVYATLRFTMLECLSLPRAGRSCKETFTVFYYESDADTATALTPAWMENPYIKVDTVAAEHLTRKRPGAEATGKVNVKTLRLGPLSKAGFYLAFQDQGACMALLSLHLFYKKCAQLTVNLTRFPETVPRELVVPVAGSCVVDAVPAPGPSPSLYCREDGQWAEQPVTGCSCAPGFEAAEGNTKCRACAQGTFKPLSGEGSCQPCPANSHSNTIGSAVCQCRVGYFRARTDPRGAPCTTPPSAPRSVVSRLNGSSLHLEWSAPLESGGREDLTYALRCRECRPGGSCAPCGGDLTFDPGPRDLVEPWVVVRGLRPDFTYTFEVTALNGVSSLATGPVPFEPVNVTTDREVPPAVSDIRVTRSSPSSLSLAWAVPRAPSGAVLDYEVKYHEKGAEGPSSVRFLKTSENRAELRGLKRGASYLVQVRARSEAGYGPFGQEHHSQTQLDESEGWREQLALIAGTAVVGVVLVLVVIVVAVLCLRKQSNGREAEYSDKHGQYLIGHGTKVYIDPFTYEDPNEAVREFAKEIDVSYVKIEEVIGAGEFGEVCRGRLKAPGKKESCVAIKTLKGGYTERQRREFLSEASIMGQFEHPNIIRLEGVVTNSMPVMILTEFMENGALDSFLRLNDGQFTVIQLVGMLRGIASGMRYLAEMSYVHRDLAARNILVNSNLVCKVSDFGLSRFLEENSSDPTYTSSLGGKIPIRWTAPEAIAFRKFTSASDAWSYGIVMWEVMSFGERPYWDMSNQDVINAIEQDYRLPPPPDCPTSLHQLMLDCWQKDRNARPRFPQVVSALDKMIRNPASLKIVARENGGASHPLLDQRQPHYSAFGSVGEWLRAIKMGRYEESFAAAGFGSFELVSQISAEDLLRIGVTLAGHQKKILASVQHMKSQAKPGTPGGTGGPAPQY
Entries and their measured pEC50 follow.
Hey, just a heads up that pEC50 is the negative log base 10 of the concentration in molar.

Cc1ccc(-n2nc(C(C)(C)C)cc2NC(=O)Nc2ccc(-n3c(N)c(C(N)=O)c4nc5ccccc5nc43)cc2)cc1	6.44

# input for lookup
Lab request: please report pEC50 under test system Ephrin type-B receptor 4 (Homo sapiens) for CC(C)(C)c1cc(NC(=O)Nc2ccc(-n3c(N)c(C(N)=O)c4nc5ccccc5nc43)cc2)n(-c2ccc3ncccc3c2)n1
5.96
